tested on: S. marcescens PCM 549; experiment: Antibacterial activity, growth reduction (OD600, 24 h); type: cell-based; conditions: Serratia marcescens, PCM549; MH broth, 24 h; read-out: IC50 growth reduction
readout_label: IC50 (nM)
Your answer should be a plain number; it is taken to be in nM.

Lookup: Bench note: what IC50 did CNC(C)C1CCC(N)C(OC2C(N)CC(N)C(OC3OCC(C)(O)C(NC)C3O)C2O)O1 (stereo not shown) [gentamicin, reference compound] show?
Found: 251
